Values from paper PMC10708259

biological target: human μ-opioid receptor (OPRM1) (Homo sapiens, UniProt P35372); experiment: cell-based; details: MOR Agonist EC50 ± SEM
Sequence (P35372 whole entry): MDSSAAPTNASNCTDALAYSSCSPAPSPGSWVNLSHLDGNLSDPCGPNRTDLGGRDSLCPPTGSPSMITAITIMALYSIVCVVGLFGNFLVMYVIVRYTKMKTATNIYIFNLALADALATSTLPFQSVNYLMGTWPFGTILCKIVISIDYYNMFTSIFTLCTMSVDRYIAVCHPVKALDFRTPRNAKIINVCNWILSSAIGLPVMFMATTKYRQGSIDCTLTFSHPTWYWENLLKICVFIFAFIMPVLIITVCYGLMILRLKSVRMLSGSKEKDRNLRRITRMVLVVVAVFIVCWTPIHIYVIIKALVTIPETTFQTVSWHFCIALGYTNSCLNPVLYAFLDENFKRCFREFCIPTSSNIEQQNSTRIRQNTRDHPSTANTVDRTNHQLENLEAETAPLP
Item-by-item account of EC50

MOLECULE	RELATION_QUALIFIER	EC50, nM
CC1C2Cc3ccc(O)cc3C1(C)CCN2CCc1cccc(C(F)(F)F)c1 (centres unmarked)	=	167
CC1C2Cc3ccc(O)cc3C1(C)CCN2CCc1ccc(Cl)cc1Cl (centres unmarked)	=	5
CC1C2Cc3ccc(O)cc3C1(C)CCN2CCc1ccccc1F (centres unmarked)	=	0.2
CC1C2Cc3ccc(O)cc3C1(C)CCN2CCc1c(Cl)cccc1Cl (centres unmarked)	=	4
CC1C2Cc3ccc(O)cc3C1(C)CCN2CCc1ccccc1C(F)(F)F (centres unmarked)	=	6
C[C@H]1[C@H]2Cc3ccc(O)cc3[C@]1(C)CCN2CCc1c[nH]c2ccccc12	=	12
C=C1c2ccc(O)cc2[C@@]2(C)CCN(CCc3ccccc3)[C@@H]1[C@H]2C [(+)-38]	=	70
Cc1ccc(CCN2CCC3(C)c4cc(O)ccc4CC2C3C)cc1 (centres unmarked)	=	1.4
C=C1c2ccc(O)cc2[C@]2(C)CCN(CCc3ccccc3)[C@H]1[C@@H]2C [(−)-38]	=	0.23
C[C@H]1[C@H]2Cc3ccc(O)cc3[C@]1(C)CCN2CCc1ccc(F)cc1	=	1.8
CC1C2Cc3ccc(O)cc3C1(C)CCN2CCc1ccc([N+](=O)[O-])cc1 (centres unmarked)	=	0.3
C[C@H]1[C@H]2Cc3ccc(O)cc3[C@]1(C)CCN2CCC1CCN(C)CC1	>	10000
CC1C2Cc3ccc(O)cc3C1(C)CCN2CC=Cc1ccccc1 (centres unmarked)	=	244
CC1c2ccc(O)cc2[C@@]2(C)CCN(CCc3ccccc3)[C@@H]1[C@H]2C (single isomer, unassigned; (+)) [(+)-39]	=	21.7
CC1C2Cc3ccc(O)cc3C1(C)CCN2CCc1ccc(Cl)cc1 (centres unmarked)	=	1.3
CC1C2Cc3ccc(O)cc3C1(C)CCN2CCc1cccc(Br)c1 (centres unmarked)	=	18
CC1C2Cc3ccc(O)cc3C1(C)CCN2CCc1cccc([N+](=O)[O-])c1 (centres unmarked)	=	26
C[C@H]1[C@H]2Cc3ccc(O)cc3[C@]1(C)CCN2CCCc1ccccc1	=	69
CC1C2Cc3ccc(O)cc3C1(C)CCN2CCc1ccccc1Cl (centres unmarked)	=	1.4
CC1C2Cc3ccc(O)cc3C1(C)CCN2CCc1ccc(C(F)(F)F)cc1 (centres unmarked)	=	2
COc1ccc(CCN2CCC3(C)c4cc(O)ccc4CC2C3C)cc1 (centres unmarked)	=	1.2
CC1C2Cc3ccc(O)cc3C1(C)CCN2CCc1cccc(F)c1 (centres unmarked)	=	0.6
CC1c2ccc(O)cc2[C@]2(C)CCN(CCc3ccccc3)[C@H]1[C@@H]2C (single isomer, unassigned; (-)) [(−)-39]	=	1.2

* * *

molecular target: human κ-opioid receptor (OPRK1) (Homo sapiens); assay: Forskolin-induced cAMP accumulation assay, KOR agonist mode
Sequence (P41145 whole entry): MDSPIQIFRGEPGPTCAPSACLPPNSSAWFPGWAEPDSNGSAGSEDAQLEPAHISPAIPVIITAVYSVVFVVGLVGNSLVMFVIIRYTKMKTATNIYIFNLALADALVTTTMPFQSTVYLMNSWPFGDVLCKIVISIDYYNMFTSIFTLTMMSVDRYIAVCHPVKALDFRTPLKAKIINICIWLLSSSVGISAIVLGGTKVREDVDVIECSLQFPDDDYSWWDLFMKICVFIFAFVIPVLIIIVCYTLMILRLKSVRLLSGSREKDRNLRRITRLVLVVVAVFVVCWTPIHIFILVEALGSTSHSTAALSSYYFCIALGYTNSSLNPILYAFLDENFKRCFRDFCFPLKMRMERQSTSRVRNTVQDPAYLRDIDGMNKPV
Item-by-item account of EC50
EXPERIMENTAL_READOUT: EC50

COMPOUND	OBS_VALUE
C[C@@H]1[C@@H]2C(O)c3ccc(O)cc3[C@@]1(C)CCN2CCc1ccccc1 (single isomer, unassigned; (+)) [(+)-36]	> 10 µM
CC1C2Cc3ccc(O)cc3C1(C)CCN2CCc1cccc(F)c1 (stereo not drawn)	> 10 µM
CC1C2Cc3ccc(O)cc3C1(C)CCN2CCc1cccc(Cl)c1 (stereo not drawn)	> 10 µM
